Collected Growth Rate values appear next to each entry.
- Tested on: U2OS
- assayExplanation: Incucyte cell viability with U2OS; also: unitless GR value; below 1 slowed growth and below 0 cell loss
- Format: toxicity, cell-based
- conditions: human, 24 h, 10 µM, compound concentration 10 uM, replicate number 2

- compound: "COc1cc(N2CCC(N3CCN(C)CC3)CC2)ccc1Nc1ncc(Cl)c(Nc2ccccc2S(=O)(=O)C(C)C)n1 [TAE-684]"
  Growth Rate: 0.07
- compound: "CN1CCC(F)(Cn2cnc(-c3ccc(F)cn3)c2-c2ccnc3[nH]ccc23)CC1"
  Growth Rate: 0.68
- compound: "Cn1c(=O)n(CCCO)c(=O)c2c1nc(Oc1cccc(Cl)c1)n2Cc1ccc(Cl)cc1"
  Growth Rate: 0.89
- compound: "O=C(O)Cc1cc(I)c(Oc2ccc(O)c(I)c2)c(I)c1 [TIRATRICOL]"
  Growth Rate: 0.9
- compound: "NC(=O)c1cc2c(-c3ccc(C(=O)NCc4ccnc(Cl)c4)s3)cccc2s1"
  Growth Rate: 0.03
- compound: "COC(=O)c1sccc1S(=O)(=O)Nc1ccc(Nc2ccccc2)cc1OC"
  Growth Rate: 0.82
- compound: "CN(C(=O)c1ccccc1)c1ccc2c(c1)nc(NC(=O)c1ccc(Br)s1)n2CCC(N)=O"
  Growth Rate: 0.68
- compound: "N#Cc1cccc(-c2c[nH]c3ncnc(N4CCOCC4)c23)c1"
  Growth Rate: 0.98
- compound: "Cc1ccc(CNc2ncnc3ccc(-c4ccc(CO)o4)cc23)o1"
  Growth Rate: 0.86
- compound: "CC[C@@H](CO)Nc1nc(Nc2cccc(NC(=O)C(C)(C)C)c2)ncc1F"
  Growth Rate: 0.89
- compound: "Cn1cnc(Cn2ccc3ccc(CNCc4[nH]c5ccccc5c4[C@H]4NC(=O)c5ccc(O)cc54)cc32)c1"
  Growth Rate: 0.9
- compound: "Nc1nccc(-c2c(-c3ccc(F)cc3)ncn2C2CCN(Cc3ccon3)CC2)n1"
  Growth Rate: 0.66
- compound: "N[C@@H]1CCCC[C@H]1Oc1ccc2ncc(-c3cc4ccccc4o3)n2n1"
  Growth Rate: -0.63
- compound: "NS(=O)(=O)c1ccc(Nc2nc(OCC3CCCCC3)c3nc[nH]c3n2)cc1"
  Growth Rate: 0.93
- compound: "Cc1nsc(Nc2cnc(C(F)(F)F)cn2)c1C(=O)Nc1ccc(O[C@H]2CCCN(CC(F)(F)F)C2)nc1"
  Growth Rate: 0.52
- compound: "Cc1[nH]nc(C(F)(F)F)c1Cc1sc2c(c1C(=O)N1C[C@](C)(O)CO1)c(=O)n(C)c(=O)n2C(C)C [AZD3965]"
  Growth Rate: 0.83
- compound: "CC1(C)C[C@@H]1C(=O)N/C(=C\\CCCCSC[C@H](N)C(=O)O)C(=O)O [CILASTATIN]"
  Growth Rate: 0.79
- compound: "Cl.O=C1c2cccc3c2[C@H](CCC3)CN1[C@@H]1CN2CCC1CC2 [PALONOSETRON HYDROCHLORIDE]"
  Growth Rate: 0.98
- compound: "CN1CCN(c2ccc(-n3cc(-c4ccncc4OCC4CCNCC4)cn3)cc2)CC1"
  Growth Rate: 0.16
